System: ULK2
Conditions: concentration: 1 μM, replicates: in singlicate; n = 1
recorded.metric: %Inh (%)

COC(=O)c1c(-c2ccccc2)c2cc(OC)ccc2c(=O)n1Cc1ccccc1 :: 0
Cn1cncc1-c1ccc2ncnc(Nc3ccc(OCc4ccccc4)cc3)c2c1 :: 0
Cc1ccccc1-n1cnc2c(N)ncnc21 :: 0
CN1C(=O)C(Nc2ccc(Cl)c(C(=O)O)c2)=C(c2ccc(Cl)cc2)C1=O :: 2
Cc1ccc(NC(=O)Nc2cc(C(C)(C)C)nn2-c2ccccc2)cc1 :: 0
COc1ccc(Nc2nccc(NCCNC(=O)Nc3ccccc3F)n2)cc1 :: 0
Cc1cccc(-c2cc(Nc3ccncc3)c3ccccc3n2)n1 :: 0
Cl.c1ccc(-c2n[nH]cc2-c2ccnc(-c3ccc(CN4CCOCC4)cc3)c2)nc1 :: 0
Cc1cccc(-c2nc(C)cc(Nc3ccncc3)n2)n1 :: 0
COc1ccc2nc(-c3cccc(C)n3)nc(Nc3ccncc3)c2c1 :: 0
Cc1csc(-c2nc(Nc3ccncc3)c3ccccc3n2)n1 :: 23
O=C(O)COc1ncnc2cc(-c3ccc4[nH]ncc4c3)sc12 :: 26
COc1cc2ncnc(Nc3ccc4nc(-c5ccccc5)[nH]c4c3)c2cc1OC.Cl :: 0
COc1cc2nccc(Nc3ccc(NC(=O)c4ccc(C)cc4)c(O)c3)c2cc1OC.Cl :: 0
COc1ccccc1CNC(=O)c1cc(C(=O)c2ccccc2C)c[nH]1 :: 0
Fc1cc(Cl)ccc1Nc1ccnc2cc(I)ccc12 :: 0
CS(=O)(=O)c1ccc(-c2nc3n(c2-c2ccncc2)CCC3)cc1 :: 0
O=c1cc(N2CCOCC2)nc2n(Cc3cccc(Cl)c3Cl)ccn12 :: 0
O=C(Nc1n[nH]c2nc(-c3nccs3)c(Br)cc12)C1CC1 :: 7

###

Test system: FLT3-autoinhibited
Conditions: concentration: 1 μM, replicates: in singlicate; n = 1
Record Criterion met whenever %Inh is at 8% or higher; record Criterion not met when lower.

CN1C(=O)C(Nc2ccc(Cl)c(C(=O)O)c2)=C(c2ccc(Cl)cc2)C1=O [SB-404290] :: Criterion met
Cn1cncc1-c1ccc2ncnc(Nc3ccc(OCc4ccccc4)cc3)c2c1 [GW320571] :: Criterion not met
CC1=C(C(=O)Nc2cc3cn[nH]c3cc2F)C(c2ccc(C(F)(F)F)cc2)CC(=O)N1 (stereo not drawn) [GSK429286] :: Criterion not met
O=C(O)COc1ncnc2cc(-c3ccc4[nH]ncc4c3)sc12 :: Criterion met
CS(=O)(=O)c1ccc(-c2c(-c3ncn[nH]3)sc(N3CCOCC3)c2C#N)cc1 :: Criterion not met
Cl.O=C(Nc1cccc(-c2nn3ncccc3c2-c2ccnc(Nc3cccnc3)n2)c1)c1c(F)cccc1F [GSK312879] :: Criterion not met
COc1cccc(-c2cc(-c3c[nH]nc3-c3ccccn3)ccn2)c1 [GW680338] :: Criterion not met
Cc1cc(N2Cc3ccccc3C2)nc(Nc2ccc(S(=O)(=O)N3CCOCC3)cc2)n1.Cl [GSK1669917] :: Criterion not met
Cc1ccc(NC(=O)Nc2cc(C(C)(C)C)nn2-c2ccccc2)cc1 [GSK1014915] :: Criterion met
COC(=O)c1c(-c2ccccc2)c2cc(OC)ccc2c(=O)n1Cc1ccccc1 :: Criterion met
Cc1cccc(-c2nc(Nc3cccc(C(N)=O)c3)c3ccccc3n2)n1 [GW876019] :: Criterion not met
Cc1cccc(-c2cc(Nc3ccncc3)c3ccccc3n2)n1 [GSK223675] :: Criterion not met
Nc1ncnc2[nH]c(-c3ccccc3)nc12 [AH5015] :: Criterion not met
Cc1ccc(NC(=O)Nc2cccc(Cl)c2)cc1-c1ccc(C(=O)Nc2ccncc2)cc1 [GSK1398468] :: Criterion met
Cc1ccc(-c2cc(-c3c[nH]nc3-c3ccccn3)ccn2)cc1 [GW684088] :: Criterion met
COc1ccccc1-c1ccc2c(NC(=O)C3CC3)n[nH]c2n1 [SB-711239] :: Criterion not met
O=C(Nc1ccc2c(c1)OCO2)NC1CCN(c2ccnc(Nc3ccc(F)cc3)n2)C1 (stereo not drawn) [GSK1379724] :: Criterion not met

###

Tested on: LIMK2
Details: concentration: 1 μM, replicates: in singlicate; n = 1
recorded.metric: %Inh (%)

COc1cccc(-c2cc(-c3c[nH]nc3-c3ccccn3)ccn2)c1 :: 15
Cc1cccc(-c2nc(Nc3ccc4[nH]ncc4c3)c3ccccc3n2)n1 :: 2
Nc1nc(-c2nccs2)c(-c2ccnc3ccccc23)s1 :: 0
Cc1cc(-c2ccc3c(c2)CC[C@@H](N[C@@H](C)c2ccccc2)C3)cnc1N.Cl :: 0
COc1cc2nccc(Nc3ccc(NC(=O)c4ccc(C)cc4)c(O)c3)c2cc1OC.Cl :: 1
COc1ccccc1-c1ccc2c(NC(=O)C3CC3)n[nH]c2n1 :: 5
Cl.O=C(Nc1cccc(-c2nn3ncccc3c2-c2ccnc(Nc3cccnc3)n2)c1)c1c(F)cccc1F :: 0
CN(C)CCN(C)C(=O)c1cc(-c2ccncc2)c(-c2ccc(Cl)c(O)c2)o1.Cl.Cl :: 0
Cc1cc(N2Cc3ccccc3C2)nc(Nc2ccc(S(=O)(=O)N3CCOCC3)cc2)n1.Cl :: 16
Fc1cccc(COc2nnc(-c3ccc4c(c3)CCO4)o2)c1 :: 0
CCn1c(-c2ccccn2)nc2cnccc21 :: 0
O=C(O)COc1ncnc2cc(-c3ccc4[nH]ncc4c3)sc12 :: 0
Cc1cccc(-c2nc(Nc3ccncc3)c3ccccc3n2)n1 :: 5
Cl.c1ccc(-c2n[nH]cc2-c2ccnc(-c3ccc(CN4CCOCC4)cc3)c2)nc1 :: 19
Cl.Oc1ccc(-c2nc(-c3ccccc3)[nH]c2-c2ccncc2)cc1 :: 0
CC1=C(C(=O)Nc2cc3cn[nH]c3cc2F)C(c2ccc(C(F)(F)F)cc2)CC(=O)N1 (stereo not shown) :: 0
Fc1cc(Cl)ccc1Nc1ccnc2cc(I)ccc12 :: 0
CC(C)(C)c1ccc(C(=O)Nc2cn3cc(Cl)ccc3n2)cc1 :: 0
CC(=O)Nc1nc2cnc(Nc3cc(NC(=O)c4cccc(CCC#N)c4)ccc3C)nc2s1 :: 0

###

Tested on: MAP4K3
Conditions: concentration: 1 μM, replicates: in singlicate; n = 1
Below, each of the compounds is paired with its reported %Inh value.
recorded.metric: %Inh (%)

Cl.Oc1ccc(-c2nc(-c3ccccc3)[nH]c2-c2ccncc2)cc1 :: 0
Cn1ccc2ncnc(Oc3ccc(NC(=O)Nc4ccccc4)cc3)c21 :: 18
Cl.NC(=O)c1cccc(Nc2nccc(Nc3ccc(Oc4cccc(Cl)c4)c(Cl)c3)n2)c1 :: 0
Nc1ncnc2[nH]c(-c3ccccc3)nc12 :: 0
Cl.c1ccc(-c2n[nH]cc2-c2ccnc(-c3ccc(CN4CCOCC4)cc3)c2)nc1 :: 0
COc1ccc(Nc2nccc(-c3cccc(NC(=O)c4cc5cc(F)ccc5[nH]4)c3)n2)cc1 :: 0
CC(=O)Nc1nc2cnc(Nc3cc(NC(=O)c4cccc(CCC#N)c4)ccc3C)nc2s1 :: 0
Cc1ccccc1-n1cnc2c(N)ncnc21 :: 0
CCCc1ccc(S(=O)(=O)NC2CCN(c3ccnc(Nc4ccc(F)cc4)n3)C2)cc1 (stereo not drawn) :: 1

###

Test system: PKN1
Settings: concentration: 1 μM, replicates: in singlicate; n = 1
recorded.metric: %Inh (%)

Cc1c(Cn2ccn3c(=O)cc(N4CCOCC4)nc23)cccc1C(F)(F)F :: 20
COc1cccc(NC(=O)NC2CCN(c3ccnc(Nc4ccc(F)cc4)n3)C2)c1 (stereo not drawn) :: 8
Fc1cccc(COc2nnc(-c3ccc4c(c3)CCO4)o2)c1 :: 0
Cl.c1ccc(-c2n[nH]cc2-c2ccnc(-c3ccc(CN4CCOCC4)cc3)c2)nc1 :: 0
Nc1nc(-c2nccs2)c(-c2ccnc3ccccc23)s1 :: 6
O=c1cc(N2CCOCC2)nc2n(Cc3cccc(Cl)c3Cl)ccn12 :: 0
CC(C)(C)c1ccc(C(=O)Nc2cn3cc(-c4cccnc4)ccc3n2)cc1 :: 25
Nc1ncnc2[nH]c(-c3ccccc3)nc12 :: 0
Cc1cc(N2Cc3ccccc3C2)nc(Nc2ccc(S(=O)(=O)N3CCOCC3)cc2)n1.Cl :: 0

###

Test system: MAST1
Settings: concentration: 1 μM, replicates: in singlicate; n = 1
Below, each of the compounds is paired with its reported %Inh value.
recorded.metric: %Inh (%)

Cc1c(O)cccc1Nc1ccnc2ccc(C(F)(F)F)cc12.Cl [GW466413] :: 0
Cc1ccc(NC(=O)Nc2cccc(Cl)c2)cc1-c1ccc(C(=O)Nc2ccncc2)cc1 [GSK1398468] :: 0
COc1cc(Nc2nccc(N3CCC(NC(=O)Nc4cc(C)ccc4C)C3)n2)cc(OC)c1OC (centres unmarked) [GSK1379762] :: 2
CN1C(=O)C(Nc2ccc(Cl)c(C(=O)O)c2)=C(c2ccc(Cl)cc2)C1=O [SB-404290] :: 42
COc1cccc(-c2cc(-c3c[nH]nc3-c3ccccn3)ccn2)c1 [GW680338] :: 0

###

Test system: CIT;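 also: kd values determined as follow-up on hits from a single-replicate KINOMEscan panel screen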
recorded.metric: Kd (nM)

Cc1cccc(-c2nc(Nc3ccncc3)c3ccccc3n2)n1 :: 440
